# target or system: Androgen receptor (Rattus norvegicus, UniProt P15207); also: assay procedure not described here
# Sequence (P15207 whole entry): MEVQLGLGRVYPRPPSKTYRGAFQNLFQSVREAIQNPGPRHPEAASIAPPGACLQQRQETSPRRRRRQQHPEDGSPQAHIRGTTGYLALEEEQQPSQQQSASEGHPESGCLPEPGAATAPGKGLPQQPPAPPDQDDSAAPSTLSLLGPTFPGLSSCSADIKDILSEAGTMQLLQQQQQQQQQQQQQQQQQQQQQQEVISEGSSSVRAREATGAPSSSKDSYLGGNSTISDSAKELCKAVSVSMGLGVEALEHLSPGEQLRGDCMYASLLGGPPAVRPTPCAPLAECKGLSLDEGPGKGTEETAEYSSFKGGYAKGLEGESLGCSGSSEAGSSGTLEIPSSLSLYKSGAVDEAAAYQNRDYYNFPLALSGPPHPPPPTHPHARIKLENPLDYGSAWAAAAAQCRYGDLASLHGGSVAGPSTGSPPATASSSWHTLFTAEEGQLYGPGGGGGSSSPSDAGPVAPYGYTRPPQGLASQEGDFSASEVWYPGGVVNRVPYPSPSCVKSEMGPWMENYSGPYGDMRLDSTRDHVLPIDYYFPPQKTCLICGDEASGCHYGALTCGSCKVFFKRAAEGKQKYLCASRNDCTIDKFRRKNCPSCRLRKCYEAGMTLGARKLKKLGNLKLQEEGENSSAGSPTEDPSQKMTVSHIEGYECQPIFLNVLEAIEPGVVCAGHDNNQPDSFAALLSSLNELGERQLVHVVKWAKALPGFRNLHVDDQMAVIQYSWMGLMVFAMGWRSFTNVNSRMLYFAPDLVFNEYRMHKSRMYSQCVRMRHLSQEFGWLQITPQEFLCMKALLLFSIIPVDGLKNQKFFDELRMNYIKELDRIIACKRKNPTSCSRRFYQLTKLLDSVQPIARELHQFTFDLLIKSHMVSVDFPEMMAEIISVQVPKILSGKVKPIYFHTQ
# Assay type: functional
observable: AC50

INSERT INTO assay_data (molecule, observable, reading) VALUES
  ('CN1C(=O)C(O)N=C(c2ccccc2Cl)c2cc(Cl)ccc21 (stereo not drawn)', 'AC50', '> 30 µM'),
  ('CCN(CC)C(=O)N[C@H]1C[C@@H]2c3cccc4[nH]cc(c34)C[C@H]2N(C)C1 [TERGURIDE]', 'AC50', '> 30 µM'),
  ('N[C@@H]1[C@H]2CN(c3nc4c(cc3F)c(=O)c(C(=O)O)cn4-c3ccc(F)cc3F)C[C@@H]12', 'AC50', '> 30 µM');

# get_value(readout= AC50, system= Androgen receptor (Rattus norvegicus, UniProt P15207)) for CC(=O)Nc1ccc(O)cc1; also: assay procedure not described here
> 30 µM

Kindly state the measured AC50 obtained for CC(C)=CCC/C(C)=C/C=C/C(C)=C/C=C/C(C)=C/C=C/C=C(C)/C=C/C=C(C)/C=C/C=C(\C)CCC=C(C)C with Androgen receptor (Rattus norvegicus, UniProt P15207).
> 30 µM

Form field: AC50 recorded for COc1ccccc1OCCNCC(O)c1ccc(C)c(S(N)(=O)=O)c1 (stereo not drawn) with Androgen receptor (Rattus norvegicus, UniProt P15207) (enter value)
> 30 µM

Androgen receptor (Rattus norvegicus, UniProt P15207) / AC50 / Cc1cc(O)c(C(=O)N[C@@H](C(=O)N[C@@H]2C(=O)N3C(C(=O)O)=C(CSc4nnnn4C)CS[C@H]23)c2ccc(O)cc2)cn1 [CEFPIRAMIDE] : value?; also: assay procedure not described here
> 30 µM

Quick check: AC50 on Androgen receptor (Rattus norvegicus, UniProt P15207), item O=C1C(O)=C([C@H]2CC[C@H](c3ccc(Cl)cc3)CC2)C(=O)c2ccccc21 ?
> 30 µM
